From: patent US10889556B2

- Tested On: influenza PA endonuclease (Influenza A virus)
- Run Description: biochemical
- Set-up: species or system Pandemic H1N1 influenza A
I'd appreciate it if you marked entries Satisfied when IC50 is lower than 3 µM and Not satisfied when it is not.

Some entries whose results are on file:
>  <Smiles Input>
CN(Cc1cc(=O)c(O)co1)c1ccncc1

>  <Class Label>
Not satisfied

$$$$
>  <Smiles Input>
CN(Cc1cc(=O)c(O)co1)c1cccc(F)c1

>  <Class Label>
Not satisfied

$$$$
>  <Smiles Input>
COc1cccc(CNC(=O)c2c(C)occ(O)c2=O)c1

>  <Class Label>
Not satisfied

$$$$
>  <Smiles Input>
CNC(=O)c1occc(=O)c1O

>  <Class Label>
Not satisfied

$$$$
>  <Smiles Input>
CN(Cc1cc(=O)c(O)co1)c1ccc(F)cc1

>  <Class Label>
Satisfied

$$$$

Moving on to another compound below.
Enquiry: Consider the compound "COc1cc(C)c(C(=O)O)cc(O)c1=O" . Is its IC50 strictly less than 3 µM?
Return: Satisfied

----------
- Tested On: influenza PA endonuclease (Influenza A virus, UniProt C3W5S0)
- Run Description: biochemical
- Design: species or system Pandemic H1N1 influenza A
- Measurement Context: IC50 value
Endpoint: pIC50
Conceptually, pIC50 converts a concentration in mol/L into minus its log10.

Enquiry: Identify the reported pIC50 for the following entry. "O=C(O)c1[nH]c(Br)cc(=O)c1O"
Return: 7.60

----------
- Tested On: influenza PA endonuclease (Influenza A virus, UniProt C3W5S0)
- Run Description: biochemical
- Design: species or system Pandemic H1N1 influenza A
Doc: threshold 5000 nM (exclusive). Items with IC50 beneath it return label 1; others return label 0.

The examples below pair each entry with its known result.
>  <Molecule>
Cc1occ(O)c(=O)c1C(=O)NCCc1ccccc1 [Compound 13]

>  <Tested On>
influenza PA endonuclease (Influenza A virus, UniProt C3W5S0)

>  <Class Label>
label 0

$$$$
>  <Molecule>
Cc1c(O)c(=O)ccn1C1CCCCC1 [Compound 48]

>  <Tested On>
influenza PA endonuclease (Influenza A virus, UniProt C3W5S0)

>  <Class Label>
label 0

$$$$
>  <Molecule>
O=C(O)c1cccc(-c2cc(=O)c(O)c(C(=O)O)[nH]2)c1 [compound 145]

>  <Tested On>
influenza PA endonuclease (Influenza A virus, UniProt C3W5S0)

>  <Class Label>
label 1

$$$$
>  <Molecule>
CCOC(=O)c1c(C)n(-c2ccccc2)cc(O)c1=O [compound 67]

>  <Tested On>
influenza PA endonuclease (Influenza A virus, UniProt C3W5S0)

>  <Class Label>
label 0

$$$$
>  <Molecule>
O=C(O)c1[nH]c(-c2ccc(Oc3ccccc3)cc2)cc(=O)c1O [compound 143]

>  <Tested On>
influenza PA endonuclease (Influenza A virus, UniProt C3W5S0)

>  <Class Label>
label 1

$$$$
>  <Molecule>
O=C(O)c1[nH]c(-c2ccccc2)cc(=O)c1O [compound 142]

>  <Tested On>
influenza PA endonuclease (Influenza A virus, UniProt C3W5S0)

>  <Class Label>
label 1

$$$$

Enquiry: Could you please tell me whether IC50 recorded for Cc1cc(=O)c(O)cn1C1CCOCC1 [Compound 51] is less than 5000 nM?
Return: label 1

Enquiry: Does this molecule meet the criterion IC50 < 5000 nM? O=C(O)c1[nH]c(-c2ccc(-c3nnn[nH]3)cc2)cc(=O)c1O [compound 148]
Return: label 1

Enquiry: Hello, I'm reviewing records and need to know if IC50 of O=c1cccccc1O [compound 201] is below 5000 nM. Could you check?
Return: label 0
